biological target: ETA receptors (Rattus norvegicus, UniProt P26684); construct: The thoracic aorta or trachea were excised, dissected and cut in 3-5 mm rings; from tissue; host or cells: thoracic aorta rings of adult Wistar rats, endothelium removed; assay: Inhibition of endothelin-1-induced contractions on isolated rat aortic rings; format: cell-based; settings: read-out: pA2 value ETA (converted)
Sequence (P26684 21-426): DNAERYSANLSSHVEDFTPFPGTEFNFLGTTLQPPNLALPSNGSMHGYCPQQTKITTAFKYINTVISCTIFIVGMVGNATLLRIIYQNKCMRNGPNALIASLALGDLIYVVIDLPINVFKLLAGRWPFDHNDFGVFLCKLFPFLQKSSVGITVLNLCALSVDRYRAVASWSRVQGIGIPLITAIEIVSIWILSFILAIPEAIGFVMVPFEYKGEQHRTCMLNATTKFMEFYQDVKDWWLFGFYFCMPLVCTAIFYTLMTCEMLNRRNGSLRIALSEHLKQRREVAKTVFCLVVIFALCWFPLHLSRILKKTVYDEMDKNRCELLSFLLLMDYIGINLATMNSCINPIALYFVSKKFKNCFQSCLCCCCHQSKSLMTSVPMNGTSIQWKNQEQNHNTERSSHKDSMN
OBSERVATION TYPE: Kb (nM)
Return type: number; implicit unit nM.

# example entries with known answers
1. COc1ccccc1Oc1c(NS(=O)(=O)/C=C/c2cccs2)nc(-c2ccncc2)nc1OCCOc1ncc(Br)cn1: 1.48
2. O=S(=O)(/C=C/c1ccccc1)Nc1ncnc(OCCOc2ncc(Br)cn2)c1-c1ccc(Cl)cc1: 0.851
3. COc1ccccc1Oc1c(NS(=O)(=O)/C=C/c2ccccc2)ncnc1OCCOc1ncc(Br)cn1: 24.5
4. COc1ccccc1Oc1c(NS(=O)(=O)/C=C/c2ccccc2)nc(N2CCOCC2)nc1OCCOc1ncc(Br)cn1: 2.51
5. COc1ccccc1Oc1c(NS(=O)(=O)/C=C/c2ccccc2)nc(N2CCOCC2)nc1OCCOc1ncccn1: 31.6
6. Cc1ccc(-c2c(NS(=O)(=O)/C=C/c3ccccc3)ncnc2OCCOc2ncc(Cl)cn2)cc1: 2.14

Now examine the next entry.
Q) Kindly state the measured Kb obtained for Cc1ccc(-c2c(NS(=O)(=O)/C=C/c3ccccc3)nc(-c3ncccn3)nc2OCCOc2ncc(Br)cn2)cc1 with ETA receptors (Rattus norvegicus, UniProt P26684).
A) 1.86
